Assay: Stability in mouse plasma assessed as parent compound remaining measured after 120 mins by LC-MS/MS analysis
Assay type: ADME, cell-free
Conditions: read-out: Stability
measure: remaining at 2 h
# output: number + unit

Incoming: Let me know recorded remaining at 2 h for CC(C)(c1ccc(OCC2CCN(CC3CCN(c4ccc5c(c4)C(=O)N(C4CCC(=O)NC4=O)C5=O)CC3)CC2)cc1)c1ccc(OC[C@H](O)CCl)cc1 (stereo partly specified) , thanks.
Outgoing: 91.2%

---

Test: Stability in human plasma assessed as parent compound remaining measured after 120 mins by LC-MS/MS analysis
Assay type: ADME, cell-free
Details: read-out: Stability
measure: remaining at 2 h

Incoming: Give the reported remaining at 2 h for this compound. CC(C)(c1ccc(OCC2CCN(CC3CCN(c4ccc5c(c4)C(=O)N(C4CCC(=O)NC4=O)C5=O)CC3)CC2)cc1)c1ccc(OC[C@H](O)CCl)cc1 (stereo partly specified)
Outgoing: 87.3%

---

Test: Stability in mouse plasma assessed as parent compound remaining measured after 60 mins by LC-MS/MS analysis
Type: ADME, cell-free
Details: read-out: Stability
measure: remaining at 1 h (%)
Answers are plain numbers, in %.

Incoming: Please report the measured remaining at 1 h for CC(C)(c1ccc(OCC2CCN(CC3CCN(c4ccc5c(c4)C(=O)N(C4CCC(=O)NC4=O)C5=O)CC3)CC2)cc1)c1ccc(OC[C@H](O)CCl)cc1 (stereo partly specified)
Outgoing: 90.8

---

Target: Voltage-gated inwardly rectifying potassium channel KCNH2 (Homo sapiens)
Sequence (Q12809 whole entry): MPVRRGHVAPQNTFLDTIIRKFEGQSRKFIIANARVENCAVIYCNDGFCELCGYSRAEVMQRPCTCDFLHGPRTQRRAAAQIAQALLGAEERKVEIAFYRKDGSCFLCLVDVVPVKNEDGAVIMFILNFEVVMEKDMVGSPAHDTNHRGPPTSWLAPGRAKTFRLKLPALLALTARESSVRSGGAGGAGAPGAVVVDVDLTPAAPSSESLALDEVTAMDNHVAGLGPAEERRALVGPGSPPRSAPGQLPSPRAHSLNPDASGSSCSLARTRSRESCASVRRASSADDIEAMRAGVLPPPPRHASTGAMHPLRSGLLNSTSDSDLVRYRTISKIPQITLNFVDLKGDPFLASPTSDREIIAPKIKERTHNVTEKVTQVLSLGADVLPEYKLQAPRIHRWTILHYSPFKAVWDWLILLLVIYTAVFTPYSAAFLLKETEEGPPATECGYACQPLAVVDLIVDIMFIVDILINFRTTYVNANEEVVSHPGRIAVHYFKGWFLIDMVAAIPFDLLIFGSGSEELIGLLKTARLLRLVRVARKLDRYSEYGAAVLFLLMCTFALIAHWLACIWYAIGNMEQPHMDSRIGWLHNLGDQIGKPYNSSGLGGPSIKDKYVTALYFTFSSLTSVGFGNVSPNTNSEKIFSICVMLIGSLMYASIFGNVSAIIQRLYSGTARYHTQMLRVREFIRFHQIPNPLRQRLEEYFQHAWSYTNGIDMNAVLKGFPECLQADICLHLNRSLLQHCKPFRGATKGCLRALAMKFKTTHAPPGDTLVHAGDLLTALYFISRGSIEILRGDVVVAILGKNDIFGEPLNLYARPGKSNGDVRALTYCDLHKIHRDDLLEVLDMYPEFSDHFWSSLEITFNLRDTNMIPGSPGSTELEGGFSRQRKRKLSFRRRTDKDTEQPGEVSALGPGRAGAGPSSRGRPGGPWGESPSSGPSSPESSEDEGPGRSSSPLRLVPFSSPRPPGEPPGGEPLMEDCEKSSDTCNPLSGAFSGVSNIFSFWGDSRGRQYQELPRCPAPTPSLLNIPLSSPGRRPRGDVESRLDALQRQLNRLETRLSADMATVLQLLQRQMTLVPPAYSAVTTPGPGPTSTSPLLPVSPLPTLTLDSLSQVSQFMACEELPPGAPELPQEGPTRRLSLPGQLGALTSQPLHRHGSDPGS
Assay: Inhibition of hERG in HEK293 cells by whole-cell manual patch clamp technique
measure: IC50

Incoming: Indicate its recorded IC50; the compound in question is CC(C)(c1ccc(OCC2CCN(CC3CCN(c4ccc5c(c4)C(=O)N(C4CCC(=O)NC4=O)C5=O)CC3)CC2)cc1)c1ccc(OC[C@H](O)CCl)cc1 (stereo partly specified)
Outgoing: > 10 µM

---

Assay: Tmax in beagle dog at 5 mg/kg, po measured by LC-MS/MS analysis
Format: ADME, organism-based, Canis lupus familiaris
Details: in vivo
measure: Tmax (h)
Give bare numbers, in h.

Incoming: Provide measured Tmax value, entry: CC(C)(c1ccc(OCC2CCN(CC3CCN(c4ccc5c(c4)C(=O)N(C4CCC(=O)NC4=O)C5=O)CC3)CC2)cc1)c1ccc(OC[C@H](O)CCl)cc1 (stereo partly specified)
Outgoing: 2.8

---

Assay: Tmax in ICR mouse at 2 mg/kg, iv measured by LC-MS/MS analysis
Type: ADME, organism-based
Settings: in vivo
measure: Tmax

compound="CC(C)(c1ccc(OCC2CCN(C(=O)CCCNc3ccc4c(c3)C(=O)N(C3CCC(=O)NC3=O)C4=O)CC2)cc1)c1ccc(OC[C@H](O)CCl)cc1 (stereo partly drawn)" result="6 min"
compound="CC(C)(c1ccc(OCC2CCN(CC3CN(C4CCN(c5cccc6c5C(=O)N(C5CCC(=O)NC5=O)C6=O)CC4)C3)CC2)cc1)c1ccc(OC[C@H](O)CCl)cc1 (stereo partly drawn)" result="6 min"

Incoming: Return value of Tmax for input CC(C)(c1ccc(OCC2CCN(CC3CCN(c4ccc5c(c4)C(=O)N(C4CCC(=O)NC4=O)C5=O)CC3)CC2)cc1)c1ccc(OC[C@H](O)CCl)cc1 (stereo partly drawn) , no commentary.
Outgoing: 6 min

---

For each record, write down the corresponding Tmax.
Experiment: Tmax in ICR mouse at 10 mg/kg, po measured by LC-MS/MS analysis
Assay type: ADME, organism-based
Settings: in vivo
One number for each entry, in h.

Your task in this section: give Tmax for each listed record.
1. CC(C)(c1ccc(OCC2CCN(CC3CCN(c4ccc5c(c4)C(=O)N(C4CCC(=O)NC4=O)C5=O)CC3)CC2)cc1)c1ccc(OC[C@H](O)CCl)cc1 (stereo partly drawn)
2. CC(C)(c1ccc(OCC2CCN(C(=O)CCCNc3ccc4c(c3)C(=O)N(C3CCC(=O)NC3=O)C4=O)CC2)cc1)c1ccc(OC[C@H](O)CCl)cc1 (stereo partly drawn)

Outgoing:
[4.7, 0.2]

Incoming: Name the recorded Tmax of the molecule listed here: CC(C)(c1ccc(OCC2CCN(CC3CN(C4CCN(c5cccc6c5C(=O)N(C5CCC(=O)NC5=O)C6=O)CC4)C3)CC2)cc1)c1ccc(OC[C@H](O)CCl)cc1 (stereo partly drawn)
Outgoing: 2

Data credit: ChEMBL document CHEMBL5325501
